# Tested on: neural stem cells
# test-method-notes: In vitro differentiation assay on adult neural stem cells (beta-III-tubulin promoter firefly/Renilla dual luciferase reporter)
# Format: cell-based, rat
# run-parameters: Rattus norvegicus, Neural stem cell; 1 μM final compound concentration; in comparison to sham treatment; read-out: Stimulation factor for differentiation of neural stem cells

- compound: "O=C(/C=C/C=C/c1ccc2c(c1)OCO2)N1CCCCC1"
  fold induction at 1 µM: 2.1
- compound: "CCCOc1ccc(C=CC(=O)NC2CCCCCC2)cc1"
  fold induction at 1 µM: 1.7
- compound: "CCOc1ccc(C=CC(=O)NC2CCCO2)cc1 (stereo not drawn)"
  fold induction at 1 µM: 1.5
- compound: "CCCOc1ccc(C=CC(=O)NC2CCCC2)cc1"
  fold induction at 1 µM: 1.6
- compound: "CCCOc1ccc(C=CC(=O)N2CCCCCC2)cc1 [1-[3-(4-propoxyphenyl)acryloyl]azepane]"
  fold induction at 1 µM: 2.3
- compound: "NC1(C(=O)/C=C/c2ccc3c(c2)OCO3)CCCCCC1"
  fold induction at 1 µM: 4
- compound: "CCCOc1ccc(C=CC(=O)N2CCCCC2)cc1"
  fold induction at 1 µM: 4
- compound: "CCOc1ccc(C=CC(=O)NC2CCCCC2)cc1"
  fold induction at 1 µM: 1.7
- compound: "O=C(C=Cc1ccc2c(c1)OCO2)NC1CCCCCCC1"
  fold induction at 1 µM: 5
- compound: "COc1ccc(C=CC(=O)NC2CCCCCCC2)cc1"
  fold induction at 1 µM: 1.9
- compound: "CC1CCN(C(=O)C=Cc2ccc3c(c2)OCO3)CC1"
  fold induction at 1 µM: 1.9
- compound: "O=C(/C=C/c1ccc2c(c1)OCO2)N1CCCC1"
  fold induction at 1 µM: 1.3
- compound: "O=C(C=Cc1ccc2c(c1)OCO2)NC1CC2CCC1C2 (stereo not drawn)"
  fold induction at 1 µM: 1.7
- compound: "NC1(C(=O)/C=C/c2ccc3c(c2)OCO3)CCCC1"
  fold induction at 1 µM: 1.4
- compound: "O=C(C=Cc1ccc2c(c1)OCO2)NCC1CCCO1 (stereo not drawn)"
  fold induction at 1 µM: 1.5

###

# Test system: neural stem cells
# test-method-notes: In vitro differentiation assay on adult neural stem cells (beta-III-tubulin promoter firefly/Renilla dual luciferase reporter)
# Type: cell-based, rat
# run-parameters: 1 μM final compound concentration; in comparison to sham treatment
endpoint-name: Stimulation factor for differentiation of neural stem cells (x-fold)

- smiles-str: "O=C(C=Cc1ccc2c(c1)OCCCO2)N1CCCCCC1"
  recorded-value: 6.1
- smiles-str: "O=C(C=Cc1ccc2c(c1)OCO2)NC1=NCCS1"
  recorded-value: 4.6
- smiles-str: "O=C(C=Cc1cc(Cl)c2c(c1)OCCCO2)N1CCCCCC1"
  recorded-value: 2.2
- smiles-str: "O=C(C=Cc1cc(Cl)c2c(c1)OCCO2)N1CCCCCC1"
  recorded-value: 1.8
- smiles-str: "O=C(/C=C/c1ccc(Cl)cc1)N1CCCCC1"
  recorded-value: 4.4

###

Reported degree of apoptosis relative to the staurosporine control values for the following molecules.
# System: motoneural cell line NSC-34
# test-method-notes: Anti-apoptosis assay on motoneural cell line, staurosporine induced apoptosis, Caspase-Glo 3/7
# Format: cell-based
# run-parameters: compound 1 μM in the presence of staurosporine 0.1 μM
endpoint-name: degree of apoptosis relative to the staurosporine control (%)

- smiles-str: "O=C(/C=C/c1ccc(Cl)cc1)N1CCCCC1"
  recorded-value: 71
- smiles-str: "O=C(C=Cc1ccc2c(c1)OCO2)NC1CCCCCCC1"
  recorded-value: 75
- smiles-str: "CCCOc1ccc(C=CC(=O)N2CCCCC2)cc1"
  recorded-value: 77
- smiles-str: "O=C(C=Cc1ccc2c(c1)OCO2)NC1=NCCS1"
  recorded-value: 76
- smiles-str: "O=C(C=Cc1ccc2c(c1)OCCCO2)N1CCCCCC1"
  recorded-value: 83
- smiles-str: "O=C(/C=C/C=C/c1ccc2c(c1)OCO2)N1CCCCC1"
  recorded-value: 70
- smiles-str: "NC1(C(=O)/C=C/c2ccc3c(c2)OCO3)CCCCCC1"
  recorded-value: 55
